Would you mind telling me the reported pIC50 of each entry?
Target: Recombinant human KIF18A (1-467 His-tagged) (Homo sapiens)
Construct: Recombinant human KIF18A (1-467 His-tagged) protein; His
Sequence (Q8NI77 1-467): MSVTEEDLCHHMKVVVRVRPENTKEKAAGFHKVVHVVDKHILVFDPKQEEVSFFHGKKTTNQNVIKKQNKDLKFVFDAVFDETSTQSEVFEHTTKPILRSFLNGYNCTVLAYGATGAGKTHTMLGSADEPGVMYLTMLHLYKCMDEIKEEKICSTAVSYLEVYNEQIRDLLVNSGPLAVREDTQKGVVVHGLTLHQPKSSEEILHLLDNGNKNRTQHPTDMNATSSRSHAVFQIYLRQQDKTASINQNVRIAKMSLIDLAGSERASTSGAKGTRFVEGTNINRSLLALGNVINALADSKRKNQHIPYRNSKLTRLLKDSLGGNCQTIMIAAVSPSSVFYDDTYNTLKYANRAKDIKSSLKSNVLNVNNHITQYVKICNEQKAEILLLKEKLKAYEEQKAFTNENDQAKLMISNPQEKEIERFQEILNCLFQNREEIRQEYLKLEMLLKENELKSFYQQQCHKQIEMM
Sequence (P02550 whole entry partner): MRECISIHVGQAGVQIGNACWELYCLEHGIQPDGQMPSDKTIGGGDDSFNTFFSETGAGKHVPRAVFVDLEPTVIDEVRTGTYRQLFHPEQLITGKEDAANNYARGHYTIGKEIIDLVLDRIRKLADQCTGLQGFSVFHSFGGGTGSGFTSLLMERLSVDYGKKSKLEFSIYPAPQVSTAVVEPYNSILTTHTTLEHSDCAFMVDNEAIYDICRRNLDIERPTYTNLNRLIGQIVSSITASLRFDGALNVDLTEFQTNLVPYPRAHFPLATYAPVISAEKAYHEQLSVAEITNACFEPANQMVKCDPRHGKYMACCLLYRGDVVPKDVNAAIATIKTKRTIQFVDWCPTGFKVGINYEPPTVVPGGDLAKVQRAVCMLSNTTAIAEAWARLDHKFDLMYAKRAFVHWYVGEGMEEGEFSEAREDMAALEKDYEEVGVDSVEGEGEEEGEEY
Sequence (P02554 whole entry partner): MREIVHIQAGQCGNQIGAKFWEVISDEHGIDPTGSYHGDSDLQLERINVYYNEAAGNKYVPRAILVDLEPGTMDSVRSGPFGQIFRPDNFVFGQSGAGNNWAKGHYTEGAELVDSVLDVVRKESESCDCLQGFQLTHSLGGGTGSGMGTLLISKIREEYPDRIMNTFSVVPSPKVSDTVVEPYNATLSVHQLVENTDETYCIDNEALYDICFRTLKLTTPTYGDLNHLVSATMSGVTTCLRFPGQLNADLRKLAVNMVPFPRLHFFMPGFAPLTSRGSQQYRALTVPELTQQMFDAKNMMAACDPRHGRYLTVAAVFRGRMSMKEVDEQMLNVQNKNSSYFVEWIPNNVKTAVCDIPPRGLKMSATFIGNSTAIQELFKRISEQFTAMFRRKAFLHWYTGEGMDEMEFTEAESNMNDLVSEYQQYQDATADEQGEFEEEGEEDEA
Assay: KIF18A Enzyme Assay: microtubule-stimulated ATPase activity (ADP-Glo)
Settings: 30 nM KIF18A, 30 μg/mL pig microtubules, ATP 75 μM (Km), ADP-Glo luminescence
Give bare numbers, as −log10 of the molar value.

The following molecules have reported results that may help.
C[C@@H]1CN(c2cccc(NC(=O)c3ccc(S(=O)(=O)NCCO)cc3N3CCC4(CC3)CC4)n2)CCO1; 7.80
C[C@@H]1CN(c2cc(C(F)(F)F)cc(NC(=O)c3ccc(NS(=O)(=O)CCO)cc3N3CCC4(CC3)CC4)n2)CCO1; 7.03
Cc1cc(NC(=O)c2ccc(CS(C)(=O)=O)cc2N2CCC3(CC2)CC3)nc(N2CCOCC2)c1; 6.84

Now look at this one.
Determine from records and report pIC50 for CC(C)(C)NS(=O)(=O)c1ccc(C(=O)Nc2cccc(N3CCO[C@H](CO)C3)n2)c(N2CCC3(CC2)CC3)c1 7.07

---

Target: Recombinant human KIF18A (1-467 His-tagged) (Homo sapiens)
Construct: Recombinant human KIF18A (1-467 His-tagged) protein; His
Assay: KIF18A Enzyme Assay: microtubule-stimulated ATPase activity (ADP-Glo)
Details: 30 nM KIF18A, 30 μg/mL pig microtubules, ATP 75 μM (Km), ADP-Glo luminescence
Field: IC50. Provide a value for each of the molecules that follow.
One number for each entry, in nM.

Record excerpt, results attached:
CC(C)c1cccc(NC(=O)c2ccc(S(C)(=O)=O)cc2N2CCC3(CC2)CC3)n1; 179
C[C@@H]1CN(c2cccc(NC(=O)c3ccc(NS(=O)(=O)C4(C)CC4)cc3N3CCC4(CC3)CC4)n2)CCO1; 66

Quick one: give measured IC50 for C[C@@H](CO)S(=O)(=O)Nc1ccc(C(=O)Nc2cccc(N3CC(F)C3)n2)c(N2CCC3(CC2)CC3)c1 (single isomer, unassigned) 47.2
